# TARGET: Cyclin-dependent kinase 13 (Homo sapiens, UniProt Q14004); note: in the data inactive means no Kd found up to 30 µM
# Sequence (Q14004 whole entry): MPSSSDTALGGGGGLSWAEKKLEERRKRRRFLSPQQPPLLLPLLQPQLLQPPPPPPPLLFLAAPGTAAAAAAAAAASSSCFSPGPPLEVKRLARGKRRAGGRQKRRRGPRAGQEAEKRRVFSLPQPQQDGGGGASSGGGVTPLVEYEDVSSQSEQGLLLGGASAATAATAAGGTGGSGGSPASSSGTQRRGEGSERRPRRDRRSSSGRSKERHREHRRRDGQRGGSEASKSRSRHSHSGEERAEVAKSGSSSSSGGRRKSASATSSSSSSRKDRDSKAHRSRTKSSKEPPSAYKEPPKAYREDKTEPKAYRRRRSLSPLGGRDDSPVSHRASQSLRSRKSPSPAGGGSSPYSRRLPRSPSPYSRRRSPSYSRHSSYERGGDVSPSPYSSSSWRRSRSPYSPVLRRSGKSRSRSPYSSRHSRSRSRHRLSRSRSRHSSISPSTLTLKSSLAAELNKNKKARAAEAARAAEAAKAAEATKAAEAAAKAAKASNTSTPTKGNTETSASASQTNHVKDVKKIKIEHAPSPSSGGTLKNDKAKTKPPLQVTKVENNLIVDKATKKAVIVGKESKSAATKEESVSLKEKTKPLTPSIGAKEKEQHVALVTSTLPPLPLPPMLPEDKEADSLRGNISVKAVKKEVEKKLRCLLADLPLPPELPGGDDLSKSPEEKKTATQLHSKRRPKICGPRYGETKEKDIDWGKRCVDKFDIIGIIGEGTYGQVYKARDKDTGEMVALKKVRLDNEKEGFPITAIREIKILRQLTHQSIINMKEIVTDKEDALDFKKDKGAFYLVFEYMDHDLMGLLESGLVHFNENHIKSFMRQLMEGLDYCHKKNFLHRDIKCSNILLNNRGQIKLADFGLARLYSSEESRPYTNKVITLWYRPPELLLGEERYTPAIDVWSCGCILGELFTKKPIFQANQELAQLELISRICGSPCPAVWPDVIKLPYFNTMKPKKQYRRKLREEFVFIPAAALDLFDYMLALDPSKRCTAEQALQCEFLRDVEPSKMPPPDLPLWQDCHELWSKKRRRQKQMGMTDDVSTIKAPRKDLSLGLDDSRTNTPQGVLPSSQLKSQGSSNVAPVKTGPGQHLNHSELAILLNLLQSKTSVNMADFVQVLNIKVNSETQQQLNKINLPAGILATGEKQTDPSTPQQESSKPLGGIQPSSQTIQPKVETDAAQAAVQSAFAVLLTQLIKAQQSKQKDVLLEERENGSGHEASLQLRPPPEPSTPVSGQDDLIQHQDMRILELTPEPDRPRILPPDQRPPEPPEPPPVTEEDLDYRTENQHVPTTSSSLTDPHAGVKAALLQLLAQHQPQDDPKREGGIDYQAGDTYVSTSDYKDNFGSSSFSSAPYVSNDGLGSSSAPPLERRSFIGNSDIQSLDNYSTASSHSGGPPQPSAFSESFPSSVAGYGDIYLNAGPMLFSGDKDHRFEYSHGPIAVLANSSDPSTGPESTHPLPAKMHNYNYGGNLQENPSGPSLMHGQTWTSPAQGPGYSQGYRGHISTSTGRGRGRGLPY
Active and inactive are the calls of the source.
Hi there, use one of these labels in your reply, thanks! 1.0 for active, 0.0 for inactive

Solved entries (count: 3):
COCCN1CCN(Cc2ccc(-c3n[nH]c4c3C(=O)c3c(NC(=O)NN5CCOCC5)cccc3-4)cc2)CC1 : 1.0
COc1cc2ncnc3c2cc1OCCCCCN(C)Cc1ccc(Br)cc1N3 : 0.0
CC[C@@](C)(Nc1ccnc(-c2c[nH]c3ncccc23)n1)C(=O)NCC(F)(F)F : 0.0

What did the test return for "C[C@]1(O)C[C@@H](c2nc(-c3ccc4ccc(-c5ccccc5)nc4c3)c3c(N)nccn32)C1" ? 0.0

Another molecule to look at: "O=C(NC[C@H](O)CO)c1ccncc1Nc1ccc(I)cc1F" 0.0

Another molecule to look at: "COc1cc2ncnc(Nc3ccc(O)cc3)c2cc1OC" 0.0

Another molecule to look at: "COc1cc(Nc2ncc(F)c(Nc3ccc4c(n3)N(COP(=O)(O)O)C(=O)C(C)(C)O4)n2)cc(OC)c1OC" 0.0

Another molecule to look at: COc1cc2ncnc(Nc3ccc(F)c(Cl)c3)c2cc1NC(=O)/C=C/CN1CCCCC1 [DACOMITINIB ANHYDROUS] 0.0

---

# TARGET: Cyclin-dependent kinase 7 (Homo sapiens, UniProt P50613); note: in the data inactive means no Kd found up to 30 µM
# Sequence (P50613 whole entry): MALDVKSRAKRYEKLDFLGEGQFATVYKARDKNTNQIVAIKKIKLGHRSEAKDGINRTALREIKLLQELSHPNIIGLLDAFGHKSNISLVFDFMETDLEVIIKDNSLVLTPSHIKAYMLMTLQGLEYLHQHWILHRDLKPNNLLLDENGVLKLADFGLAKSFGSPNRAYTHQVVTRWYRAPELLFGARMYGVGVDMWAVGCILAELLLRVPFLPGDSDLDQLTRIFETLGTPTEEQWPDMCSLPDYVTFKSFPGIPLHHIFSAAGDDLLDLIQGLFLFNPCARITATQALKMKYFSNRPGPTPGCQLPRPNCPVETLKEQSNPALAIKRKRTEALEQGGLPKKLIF
Calls of active or inactive are those of the source.
Hi there, use one of these labels in your reply, thanks! active, inactive

O=c1[nH]c([C@@H]2CCCN2)nc2c1oc1ccc(Cl)cc12 : inactive
Cn1c(=O)c(F)c(Nc2ccc(I)cc2F)c2c(=O)n(C[C@@H](O)CO)cnc21 [TAK-733] : inactive
c1cc(OCCN2CCCCC2)cc(-c2n[nH]c3ccc(-c4nc[nH]n4)cc23)c1 [CC-401] : inactive
COc1ccc(-c2ccc3ncc4c(c3c2)n(-c2ccc(N3CCNCC3)c(C(F)(F)F)c2)c(=O)n4C)cn1 [BGT-226 FREE BASE] : inactive
COc1cccc2cc(-c3nc([C@H]4CC[C@H](C(=O)O)CC4)n4ncnc(N)c34)[nH]c12 [OSI-027] : inactive
CN1CCN(c2nc(C3=C(c4c[nH]c5ccccc45)C(=O)NC3=O)c3ccccc3n2)CC1 [SOTRASTAURIN] : inactive

What did the test return for COc1cc(Nc2ncc(F)c(Nc3ccc4c(n3)N(COP(=O)(O)O)C(=O)C(C)(C)O4)n2)cc(OC)c1OC [FOSTAMATINIB] ? inactive

Another molecule to look at: CC(C)CC(=O)Nc1[nH]nc2c1CN(C(=O)C1CCN(C)CC1)C2(C)C [PHA-793887] active

Another molecule to look at: NC[C@@](O)(c1ccc(Cl)cc1)c1ccc(-c2cn[nH]c2)cc1 [AT-13148] inactive

Another molecule to look at: C=CC(=O)Nc1cc(Nc2nccc(-c3cn(C)c4ccccc34)n2)c(OC)cc1N(C)CCN(C)C [OSIMERTINIB] inactive

Another molecule to look at: CC(C)(O)CC(=O)NCCn1ccc2ncnc(Nc3ccc(Oc4cccc(C(F)(F)F)c4)c(Cl)c3)c21 [TAK-285] inactive

Another molecule to look at: N#CCNC(=O)c1ccc(-c2ccnc(Nc3ccc(N4CCOCC4)cc3)n2)cc1 [MOMELOTINIB] inactive

Another molecule to look at: CNC(=O)c1cccc(-c2ccc3c(N4CCOC[C@@H]4C)nc(N4CCOC[C@@H]4C)nc3n2)c1 [VISTUSERTIB] inactive

Another molecule to look at: C=CC(=O)Nc1cccc(Nc2nc(Nc3ccc(N4CCN(C(C)=O)CC4)cc3OC)ncc2C(F)(F)F)c1 [ROCILETINIB] inactive

Another molecule to look at: O=S(=O)(c1cccc2c(O)nccc12)N1CCCNCC1 [HYDROXYFASUDIL] inactive

Another molecule to look at: NC(=O)c1ccc(N(C(N)=O)c2c(F)cccc2F)nc1-c1ccc(F)cc1F [VX-702] inactive

Another molecule to look at: O=C(NC[C@H](O)CO)c1ccncc1Nc1ccc(I)cc1F [PIMASERTIB] inactive
